# Tested on: NCI-H460
# assay procedure: In vitro antiproliferative assay (14C-thymidine uptake), H460 cells
# Type: cell-based, human
# condition: 72 h incubation, then 14C-thymidine uptake recorded 24 h later
quantity kind: pIC50
# log scale: pIC50 equals minus log10 of the concentration in mol/L

1) CC(=O)[O][Pt]([NH2])([Cl])([Cl])([NH]C1CCCCC1)[O]C(C)=O [satraplatin, reference compound] | 6.72

Please look at the following molecule next.
Could you share which pIC50 value was measured for O=C1[O][Pt]2([NH][C@@H]3CCCC[C@H]3[NH]2)[O]C1=O [oxaliplatin, reference compound] ?
5.62

###

# System: CCRF-CEM
# assay procedure: In vitro antiproliferative assay (14C-thymidine uptake), CEM cells
# Format: cell-based, human
# condition: 72 h incubation, then 14C-thymidine uptake recorded 24 h later
Reported pIC50 values follow for various substances
# log scale: pIC50 equals minus log10 of the concentration in mol/L

1) Trans-trans-trans-{PtCl2(OH)2(isopropylamine)[(rac)-(exo)-norbornylamine]} [EXAMPLE 1] | 7.28
2) Trans-trans-trans-{PtCl2(OH)2(isopropylamine)[(rac)-(endo)-norbornylamine]} [EXAMPLE 2] | 7.60

Please look at the following substance next.
Could you share which pIC50 value was measured for Trans-trans-trans-{PtCl2(OH)2(dimethylamine)[(exo)-2- norbornylamine]} [EXAMPLE 3] ?
7.51

Recorded values, source patent EP2404925A1.
